# System: NCI-H460 lung
# Test Description: NCI tumour cell line growth inhibition, 48 h

| Compound | Subject Of Test | TGI |
| --- | --- | --- |
| Cc1cc(-c2cc(OC(=O)c3ccccc3)ccc2Cl)cc2nnc(Nc3ccc(OCCN4CCCC4)cc3)nc12 | NCI-H460 lung | 3.3 µM |
| O=C(NC(OCc1ccccc1)(C(F)(F)F)C(F)(F)F)OCc1ccccc1 | NCI-H460 lung | 29.6 µM |
| COC(=O)[C@]12CC[C@@H](C)[C@H](C)[C@@H]1C1=CC[C@@H]3[C@@](C)(CC#N)C4=C(C[C@@]3(C)[C@]1(C)CC2)OC[C@]4(C)C=O | NCI-H460 lung | 28 µM |
| O=C1c2ccc3c4c(ccc(c24)C(=O)N1CCNCc1ccccc1)C(=O)N(CCNCc1ccccc1)C3=O | NCI-H460 lung | 4.26 µM |
| Fc1ccc(Nc2nc3nonc3nc2Nc2ccc(I)cc2)cc1 | NCI-H460 lung | 12.4 µM |
| COCCCC(NC(=O)C(CC(C)C)NC(=O)OCc1ccc(OC)cc1)C(=O)OC (stereo unspecified) | NCI-H460 lung | 46.2 µg/mL |
| O=C(Nc1cccc(-n2cc(-c3ccncc3)c(-c3ccc(Cl)c(O)c3)n2)c1)Nc1ccc(Cl)c(Cl)c1 | NCI-H460 lung | 3.57 µM |
| CC(C)=CCc1cc(/C=C/C(=O)O)cc(CC=C(C)C)c1O | NCI-H460 lung | > 100 µM |
| COC(=O)c1cccc(NC(=O)c2ccc(NC3=C(Cl)C(=O)N(Cc4ccccc4)C3=O)cc2)c1 | NCI-H460 lung | 84.6 µM |
| COc1ccc(/C=C\c2cc(OC)c(OC)c(OC)c2)c(NS(=O)(=O)c2ccc(F)cc2)c1O | NCI-H460 lung | 26.1 µM |
| O=C(Nc1ccc(F)cc1)c1cc2c(cc1Cl)Sc1nccn1S2(=O)=O | NCI-H460 lung | > 100 µM |
| O=C(N/N=C/c1ccncc1)c1ccc(F)cc1 | NCI-H460 lung | > 40 µM |
| Cn1c(=O)n(C2(C)CSC2)c2ccccc21 | NCI-H460 lung | > 100 µM |
| Cc1c(C#N)c2nc3ccccc3n2c(=O)/c1=C/Nc1ccc(Cl)cc1 | NCI-H460 lung | > 100 µM |
| COc1cc(C)[nH]c(=O)c1CNC(=O)c1c(C)n([C@H](C)C2CCN(CC(F)(F)F)CC2)c2ccccc12 | NCI-H460 lung | > 100 µM |
| COc1ccc(/C=C/C(=O)/C=C(O)/C=C/c2ccc(OC)c(OC)c2)cc1OC | NCI-H460 lung | > 100 µM |

Numbers sourced from PubChem BioAssay (NCI).
